# Measured On: PIM-1 kinase (Homo sapiens)
# Construct: made in house
# Sequence (P11309 whole entry): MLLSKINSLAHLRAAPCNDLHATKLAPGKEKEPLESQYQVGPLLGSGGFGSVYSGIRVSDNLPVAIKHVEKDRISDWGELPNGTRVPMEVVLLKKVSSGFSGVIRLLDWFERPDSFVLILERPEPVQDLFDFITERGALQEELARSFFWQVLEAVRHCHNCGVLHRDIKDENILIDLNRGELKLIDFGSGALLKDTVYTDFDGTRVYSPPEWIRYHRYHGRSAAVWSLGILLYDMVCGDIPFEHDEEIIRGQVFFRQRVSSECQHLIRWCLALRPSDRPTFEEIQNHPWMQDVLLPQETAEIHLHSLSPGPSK
# Assay Info: radiometric P81 filter isotopic kinase assay, PIM-1
# Assay type: biochemical
# Particulars: cpd. concentration 20 μM; read-out: PIM-1 Residual Activity [%]
Quantity: remaining activity at 20 µM
Your answer should be a number followed by the unit of measure.

Worked set:
CC(=O)CCn1cnc2c(Br)c(Br)c(Br)c(Br)c21
62.6%
CC(O)Cn1cnc2c(Br)c(Br)c(Br)c(Br)c21 (stereo not shown)
9.3%
CC(O)CCn1cnc2c(Br)c(Br)c(Br)c(Br)c21 (stereo not shown)
21.4%

Note: attention shifts to another entry.
## Input Report remaining activity at 20 µM, nothing else, for this compound: `CC(=O)Cn1cnc2c(Br)c(Br)c(Br)c(Br)c21`
## Output 2.9%
